This listing pairs compounds with measured log10 IC50 at 70 h.
# protocol.details: Cytotoxicity assay on L6-cells (Alamar Blue)
# condition.parameters: rat, Cytotox L6, Cytotoxicity against rat myoblast cells (L6)
Non-standard residues stand in square brackets, D forms with d. Residues, ends and D or L forms follow the SMILES beside them. *: point of attachment. Hexenoyl(2E,4S-Me) = CC[C@H](C)/C=C/C(=O)*; Leu(3R-OH) = CC(C)[C@@H](O)[C@H](N)C(=O)O; NH((S)CH(Me)CH2NMe2) = C[C@@H](CN(C)C)N*; Gly(octyl) = CCCCCCCC[C@H](N)C(=O)O; Piperazinyl(4-Me) = CN1CCN(*)CC1; NH(CH2)3NMe2 = CN(C)CCCN*; Hexanoyl = CCCCCC(=O)*; X13 = O=C(CCN1CCOCC1)*; Aib = CC(C)(N)C(=O)O; βAla = NCCC(=O)O
assay.metric: log10 IC50 at 70 h (log10 of the value in nM)

{"compound": "CCCCCCCC[C@H](NC(=O)[C@@H]1CCCN1C(=O)/C=C/[C@@H](C)CC)C(=O)N[C@@H](CO)C(=O)NC(C)(C)C(=O)N[C@@H](CC(C)C)C(=O)N[C@@H](CC(C)C)C(=O)NC(C)(C)C(=O)NC(C)(C)C(=O)NCCC(=O)N[C@@H](C)CN(C)C (stereo in doubt)", "log10 IC50 at 70 h": 3.22}
{"compound": "CCCCCCCC[C@H](NC(=O)[C@@H]1CCCN1C(=O)/C=C/[C@@H](C)CC)C(=O)N[C@H](C(=O)NC(C)(C)C(=O)N[C@@H](CC(C)C)C(=O)N[C@@H](CC(C)C)C(=O)NC(C)(C)C(=O)NC(C)(C)C(=O)NCCC(=O)N1CCN(C)CC1)[C@H](O)C(C)C [Compound 5571] ({Hexenoyl(2E,4S-Me)}-P[Gly(octyl)][Leu(3R-OH)][Aib]LL[Aib][Aib][βAla]-{Piperazinyl(4-Me)})", "log10 IC50 at 70 h": 3.42}
{"compound": "CCCCCCCC[C@H](NC(=O)[C@@H]1CCCN1C(=O)CCN1CCOCC1)C(=O)N[C@@H](CC(C)C)C(=O)NC(C)(C)C(=O)N[C@@H](CC(C)C)C(=O)N[C@@H](CC(C)C)C(=O)NC(C)(C)C(=O)NC(C)(C)C(=O)NCCC(=O)N[C@@H](C)CN(C)C [Compound 5650] (X13-P[Gly(octyl)]L[Aib]LL[Aib][Aib][βAla]-{NH((S)CH(Me)CH2NMe2)})", "log10 IC50 at 70 h": 2.69}
{"compound": "CCCCCCCC[C@H](NC(=O)[C@H](C)NC(=O)/C=C/[C@@H](C)CC)C(=O)N[C@H](C(=O)NC(C)(C)C(=O)N[C@@H](CC(C)C)C(=O)N[C@@H](CC(C)C)C(=O)NC(C)(C)C(=O)NC(C)(C)C(=O)NCCC(=O)N[C@@H](C)CN(C)C)[C@H](O)C(C)C [Compound 5527] ({Hexenoyl(2E,4S-Me)}-A[Gly(octyl)][Leu(3R-OH)][Aib]LL[Aib][Aib][βAla]-{NH((S)CH(Me)CH2NMe2)})", "log10 IC50 at 70 h": 2.44}
{"compound": "CCCCCCCC[C@H](NC(=O)[C@@H]1CCCN1C(=O)CCCCC)C(=O)N[C@@H](CC(C)C)C(=O)NC(C)(C)C(=O)N[C@@H](CC(C)C)C(=O)N[C@@H](CC(C)C)C(=O)NC(C)(C)C(=O)NC(C)(C)C(=O)NCCC(=O)NCCCN(C)C [Compound 5890] (Hexanoyl-P[Gly(octyl)]L[Aib]LL[Aib][Aib][βAla]-{NH(CH2)3NMe2})", "log10 IC50 at 70 h": 2.77}
{"compound": "CCCCCCCC[C@H](NC(=O)[C@@H]1CCCN1C(=O)CCCCC)C(=O)N[C@H](C(=O)N[C@@H](CC(C)C)C(=O)N[C@@H](CC(C)C)C(=O)NC(C)(C)C(=O)NC(C)(C)C(=O)NCCC(=O)N[C@@H](C)CN(C)C)[C@@H](C)O [Compound 5598] (Hexanoyl-P[Gly(octyl)]TLL[Aib][Aib][βAla]-{NH((S)CH(Me)CH2NMe2)})", "log10 IC50 at 70 h": 3.58}

* * *

# protocol.details: Cytotoxicity assay on L6-cells (Alamar Blue)
# condition.parameters: rat, Cytotox L6, Cytotoxicity against rat myoblast cells (L6)
Non-standard residues stand in square brackets, D forms with d. Residues, ends and D or L forms follow the SMILES beside them. *: point of attachment. Hexenoyl(2E,4S-Me) = CC[C@H](C)/C=C/C(=O)*; Leu(3R-OH) = CC(C)[C@@H](O)[C@H](N)C(=O)O; NHCH2CH2(piperidin-1-yl) = C1CCN(CCN*)CC1; NH((S)CH(Me)CH2NMe2) = C[C@@H](CN(C)C)N*; Gly(octyl) = CCCCCCCC[C@H](N)C(=O)O; Oxazole4CO(2-Me) = Cc1nc(C(=O)*)co1; X17 = C[C@@H](CN1CCOCC1)N*; X24 = CN1CC2(C1)CN(*)C2; Hexanoyl = CCCCCC(=O)*; X23 = CN1CCC12CN(*)C2; Aib = CC(C)(N)C(=O)O; X2 = CN(C)CCN(C)*; βAla = NCCC(=O)O

{"compound": "CCCCCCCC[C@H](NC(=O)[C@@H]1CCCN1C(=O)CCCCC)C(=O)N[C@@H](CC(C)C)C(=O)NC(C)(C)C(=O)N[C@@H](CC(C)C)C(=O)N[C@@H](CC(C)C)C(=O)NC(C)(C)C(=O)NC(C)(C)C(=O)NCCC(=O)N[C@@H](C)CN(C)C [Compound 5632] (Hexanoyl-P[Gly(octyl)]L[Aib]LL[Aib][Aib][βAla]-{NH((S)CH(Me)CH2NMe2)})", "result.operator": "=", "IC50 at 70 h, nM": 162}
{"compound": "CCCCCCCC[C@H](NC(=O)[C@@H](NC(=O)[C@@H]1CCCN1C(=O)/C=C/[C@@H](C)CC)[C@H](O)C(C)C)C(=O)NC(C)(C)C(=O)N[C@@H](CC(C)C)C(=O)N[C@@H](CC(C)C)C(=O)NC(C)(C)C(=O)NC(C)(C)C(=O)NCCC(=O)N[C@@H](C)CN(C)C [Compound 5560] ({Hexenoyl(2E,4S-Me)}-P[Leu(3R-OH)][Gly(octyl)][Aib]LL[Aib][Aib][βAla]-{NH((S)CH(Me)CH2NMe2)})", "result.operator": "=", "IC50 at 70 h, nM": 791}
{"compound": "CCCCCCCC[C@H](NC(=O)[C@@H]1CCCN1C(=O)CCCCC)C(=O)N[C@@H](CC(C)C)C(=O)NC(C)(C)C(=O)N[C@@H](CC(C)C)C(=O)N[C@@H](CC(C)C)C(=O)NC(C)(C)C(=O)NC(C)(C)C(=O)NCCC(=O)NCCN1CCCCC1 [Compound 5647] (Hexanoyl-P[Gly(octyl)]L[Aib]LL[Aib][Aib][βAla]-{NHCH2CH2(piperidin-1-yl)})", "result.operator": "=", "IC50 at 70 h, nM": 182}
{"compound": "CCCCCCCC[C@H](NC(=O)[C@@H]1CCCN1C(=O)c1coc(C)n1)C(=O)N[C@@H](CC(C)C)C(=O)NC(C)(C)C(=O)N[C@@H](CC(C)C)C(=O)N[C@@H](CC(C)C)C(=O)NC(C)(C)C(=O)NC(C)(C)C(=O)NCCC(=O)N1CC2(CN(C)C2)C1 [Compound 6256] ({Oxazole4CO(2-Me)}-P[Gly(octyl)]L[Aib]LL[Aib][Aib][βAla]-X24)", "result.operator": ">", "IC50 at 70 h, nM": 8060}
{"compound": "CCCCCCCC[C@H](NC(=O)[C@@H]1CCCN1C(=O)c1coc(C)n1)C(=O)N[C@@H](CC(C)C)C(=O)NC(C)(C)C(=O)N[C@@H](CC(C)C)C(=O)N[C@@H](CC(C)C)C(=O)NC(C)(C)C(=O)NC(C)(C)C(=O)NCCC(=O)N1CC2(CCN2C)C1 [Compound 6255] ({Oxazole4CO(2-Me)}-P[Gly(octyl)]L[Aib]LL[Aib][Aib][βAla]-X23)", "result.operator": "=", "IC50 at 70 h, nM": 7170}
{"compound": "CCCCCCCC[C@H](NC(=O)[C@@H]1CCCN1C(=O)CCCCC)C(=O)N[C@@H](CC(C)C)C(=O)NC(C)(C)C(=O)N[C@@H](CC(C)C)C(=O)N[C@@H](CC(C)C)C(=O)NC(C)(C)C(=O)NC(C)(C)C(=O)NCCC(=O)N[C@@H](C)CN1CCOCC1 [Compound 5981] (Hexanoyl-P[Gly(octyl)]L[Aib]LL[Aib][Aib][βAla]-X17)", "result.operator": "=", "IC50 at 70 h, nM": 1080}
{"compound": "CCCCCCCC[C@H](NC(=O)[C@@H]1CCCN1C(=O)CCCCC)C(=O)N[C@H](C(=O)NC(C)(C)C(=O)N[C@@H](CC(C)C)C(=O)N[C@@H](CC(C)C)C(=O)NC(C)(C)C(=O)NC(C)(C)C(=O)NCCC(=O)N[C@@H](C)CN(C)C)[C@@H](C)O [Compound 5604] (Hexanoyl-P[Gly(octyl)]T[Aib]LL[Aib][Aib][βAla]-{NH((S)CH(Me)CH2NMe2)})", "result.operator": "=", "IC50 at 70 h, nM": 1290}
{"compound": "CCCCCCCC[C@H](NC(=O)[C@@H]1CCCN1C(=O)/C=C/[C@@H](C)CC)C(=O)N[C@@H](CC(C)C)C(=O)NC(C)(C)C(=O)N[C@@H](CC(C)C)C(=O)N[C@@H](CC(C)C)C(=O)NC(C)(C)C(=O)NC(C)(C)C(=O)NCCC(=O)N[C@@H](C)CN(C)C [Compound 5562] ({Hexenoyl(2E,4S-Me)}-P[Gly(octyl)]L[Aib]LL[Aib][Aib][βAla]-{NH((S)CH(Me)CH2NMe2)})", "result.operator": "=", "IC50 at 70 h, nM": 459}
{"compound": "CCCCCCCC[C@H](NC(=O)[C@@H]1CCCN1C(=O)CCCCC)C(=O)N[C@@H](CC(C)C)C(=O)NC(C)(C)C(=O)N[C@H](CC(C)C)C(=O)N[C@H](CC(C)C)C(=O)NC(C)(C)C(=O)NC(C)(C)C(=O)NCCC(=O)N[C@@H](C)CN(C)C [Compound 5850] (Hexanoyl-P[Gly(octyl)]L[Aib][dL][dL][Aib][Aib][βAla]-{NH((S)CH(Me)CH2NMe2)})", "result.operator": "=", "IC50 at 70 h, nM": 820}
{"compound": "CCCCCCCC[C@H](NC(=O)[C@@H]1CCCN1C(=O)CCCCC)C(=O)N[C@@H](CC(C)C)C(=O)NC(C)(C)C(=O)N[C@@H](CC(C)C)C(=O)N[C@@H](CC(C)C)C(=O)NC(C)(C)C(=O)NC(C)(C)C(=O)NCCC(=O)N(C)CCN(C)C [Compound 5644] (Hexanoyl-P[Gly(octyl)]L[Aib]LL[Aib][Aib][βAla]-X2)", "result.operator": "=", "IC50 at 70 h, nM": 1240}
{"compound": "CCCCCCCC[C@H](NC(=O)[C@@H]1CCCN1C(=O)/C=C/[C@@H](C)CC)C(=O)N[C@H](C(=O)NC(C)(C)C(=O)N[C@@H](CC(C)C)C(=O)N[C@@H](CC(C)C)C(=O)NC(C)(C)C(=O)NC(C)(C)C(=O)NCCC(=O)N[C@@H](C)CN1CCOCC1)[C@H](O)C(C)C [Compound 5573] ({Hexenoyl(2E,4S-Me)}-P[Gly(octyl)][Leu(3R-OH)][Aib]LL[Aib][Aib][βAla]-X17)", "result.operator": "=", "IC50 at 70 h, nM": 512}
